molecular target: human MAL (human) (UniProt P58753); assay: P8 phage display panning on plate-immobilised MAL, after round 4, NGS
Would you mind telling me the reported NGS count of each entry?
Express your answer in count, writing the number without its unit.

I have this binder here, "WFYERLVSLILRDTKV" , and I need its recorded NGS count.
79000

For "SLLYDHLRWLGIRAFL" then?
2580

Same read-out for "AWALHQLQQIINWHET" ?
232

Cool, now "RNNFIGHLYQALYRIG"
3120

Next up: "WALQELVKILQAKIFL"
227

Quick one: "HFFWIQLKSILGETSF"
3620

Would you mind doing "QLIQQWIELHLHQLHL" as well?
9390
